- system_tested: Vasopressin V1a receptor (Homo sapiens, UniProt P37288)
- method_summary: Inhibition of human V1a receptor expressed in human 1321N1 cells assessed as decrease in Arg8-vasopressin-stimulated calcium flux by fluorometric calcium assay
- Sequence (P37288 whole entry): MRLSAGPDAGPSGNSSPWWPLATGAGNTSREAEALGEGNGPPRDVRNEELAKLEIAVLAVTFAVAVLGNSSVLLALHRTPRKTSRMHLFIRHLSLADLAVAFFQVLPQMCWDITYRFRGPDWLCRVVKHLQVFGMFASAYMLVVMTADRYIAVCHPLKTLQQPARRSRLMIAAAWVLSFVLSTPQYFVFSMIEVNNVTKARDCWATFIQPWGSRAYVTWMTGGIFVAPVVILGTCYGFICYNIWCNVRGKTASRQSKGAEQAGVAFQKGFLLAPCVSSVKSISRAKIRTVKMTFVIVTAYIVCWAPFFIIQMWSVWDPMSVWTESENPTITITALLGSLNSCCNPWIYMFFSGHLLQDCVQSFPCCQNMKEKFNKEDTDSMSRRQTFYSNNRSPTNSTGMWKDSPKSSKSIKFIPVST
assay_endpoint: pIC50
pIC50 is a log-scale quantity: -log10 of the concentration expressed in molar.

-- ask pIC50 lookup needed for `Clc1ccc2c(c1)CCCc1nnc(C3CCN(c4ccccn4)CC3)n1-2` , thanks.
-- reply 8.49

-- ask pIC50 lookup needed for `Cc1cc([C@H]2CC[C@H](c3nnc4n3-c3ccc(Cl)cc3CCC4)CC2)no1` , thanks.
-- reply 8.66

-- ask pIC50 lookup needed for `C#Cc1ccc2c(c1)CCCc1nnc(C3CCN(c4ccccn4)CC3)n1-2` , thanks.
-- reply 8.57

-- ask pIC50 lookup needed for COC(=O)CC1Cc2cc(Cl)ccc2-n2c1nnc2[C@H]1CC[C@H](Oc2ccccn2)CC1 (stereo not given in full) , thanks.
-- reply 6.66

-- ask pIC50 lookup needed for Cc1cc([C@H]2CC[C@H](c3nnc4n3-c3ccc(Cl)cc3C3CC43)CC2)no1 (mixture of isomers) , thanks.
-- reply 6.30

-- ask pIC50 lookup needed for `Clc1ccc2c(c1)CCCc1nnc([C@H]3CC[C@H](Oc4ccccn4)CC3)n1-2` , thanks.
-- reply 9.00

-- ask pIC50 lookup needed for `CCc1ccc2c(c1)CCCc1nnc(C3CCN(c4ccccn4)CC3)n1-2` , thanks.
-- reply 6.60

-- ask pIC50 lookup needed for `Clc1ccc2c(c1)CCc1nnc(C3CCN(c4ccccn4)CC3)n1-2` , thanks.
-- reply 5.85

-- ask pIC50 lookup needed for `Cc1ccccc1N1CCN(C(=O)N2C[C@@H](C(=O)N3CCCC3)Cc3cc(Cl)ccc32)CC1` , thanks.
-- reply 8.62

-- ask pIC50 lookup needed for `Cc1cc([C@H]2CC[C@H](c3nnc4n3-c3ccc(Br)cc3CCC4)CC2)no1` , thanks.
-- reply 8.77

-- ask pIC50 lookup needed for `O=C(C1CCN(c2ccccn2)CC1)N1CCNc2cc(Cl)ccc21` , thanks.
-- reply 6.59

-- ask pIC50 lookup needed for `Cc1cc([C@H]2CC[C@H](c3nnc4n3-c3ccc(Cl)cc3[C@H]3C[C@@H]43)CC2)no1` , thanks.
-- reply 6.20

-- ask pIC50 lookup needed for `Brc1ccc2c(c1)CCCc1nnc(C3CCN(c4ccccn4)CC3)n1-2` , thanks.
-- reply 7.89

-- ask pIC50 lookup needed for `c1ccc(N2CCC(c3nnc4n3-c3ccccc3CCC4)CC2)nc1` , thanks.
-- reply 6.93

-- ask pIC50 lookup needed for `Brc1ccc2c(c1)CCCc1nnc([C@H]3CC[C@H](Oc4ccccn4)CC3)n1-2` , thanks.
-- reply 8.89

-- ask pIC50 lookup needed for `CN1Cc2cc(Cl)ccc2-n2c(nnc2[C@H]2CC[C@H](Oc3ccccn3)CC2)C1` , thanks.
-- reply 8.52

-- ask pIC50 lookup needed for `Cc1cc([C@H]2CC[C@H](c3nnc4n3-c3ccc(Cl)cc3CC4)CC2)no1` , thanks.
-- reply 7.00

-- ask pIC50 lookup needed for `Clc1ccc2c(c1)CCc1nnc([C@H]3CC[C@H](Oc4ccccn4)CC3)n1-2` , thanks.
-- reply 7.15

-- ask pIC50 lookup needed for `Cc1cc([C@H]2CC[C@H](c3nnc4n3-c3ccccc3CCC4)CC2)no1` , thanks.
-- reply 7.60

-- ask pIC50 lookup needed for `c1ccc(O[C@H]2CC[C@H](c3nnc4n3-c3ccccc3CCC4)CC2)nc1` , thanks.
-- reply 7.70

* * *

- method_summary: in vitro
- condition_summary: human, liver microsomes
Would you kindly list microsomal CLint at 1 µM for each of these compounds?
Respond numerically; units are µL/min/mg and should not be typed.

-- ask microsomal CLint at 1 µM lookup needed for `Cc1cc([C@H]2CC[C@H](c3nnc4n3-c3ccc(Br)cc3CCC4)CC2)no1` , thanks.
-- reply 3

-- ask microsomal CLint at 1 µM lookup needed for `O=C(C1CCN(c2ccccn2)CC1)N1CCNc2cc(Cl)ccc21` , thanks.
-- reply 80

-- ask microsomal CLint at 1 µM lookup needed for `CCc1ccc2c(c1)CCCc1nnc(C3CCN(c4ccccn4)CC3)n1-2` , thanks.
-- reply 31

-- ask microsomal CLint at 1 µM lookup needed for `C#Cc1ccc2c(c1)CCCc1nnc(C3CCN(c4ccccn4)CC3)n1-2` , thanks.
-- reply 27

* * *

- method_summary: Apparent permeability across apical to basolateral side in vinblastine-treated human Caco-2 cells at 10 uM by HPLC-UV analysis
assay_endpoint: Papp A→B at 10 µM (×10⁻⁶ cm/s)
Respond numerically; units are ×10⁻⁶ cm/s and should not be typed.

-- ask Papp A→B at 10 µM lookup needed for `Clc1ccc2c(c1)CCc1nnc(C3CCN(c4ccccn4)CC3)n1-2` , thanks.
-- reply 51

-- ask Papp A→B at 10 µM lookup needed for `Brc1ccc2c(c1)CCCc1nnc(C3CCN(c4ccccn4)CC3)n1-2` , thanks.
-- reply 46

-- ask Papp A→B at 10 µM lookup needed for `Brc1ccc2c(c1)CCCc1nnc([C@H]3CC[C@H](Oc4ccccn4)CC3)n1-2` , thanks.
-- reply 29

-- ask Papp A→B at 10 µM lookup needed for `O=C(C1CCN(c2ccccn2)CC1)N1CCNc2cc(Cl)ccc21` , thanks.
-- reply 48

* * *

- method_summary: in vitro
- condition_summary: human, microsomes
assay_endpoint: microsomal CLint at 1 µM (µL/min/mg)
Respond numerically; units are µL/min/mg and should not be typed.

-- ask microsomal CLint at 1 µM lookup needed for `CN1Cc2cc(Cl)ccc2-n2c(nnc2[C@H]2CC[C@H](Oc3ccccn3)CC2)C1` , thanks.
-- reply 0.5

* * *

- method_summary: in vitro
- condition_summary: Wistar, rat, microsomes
assay_endpoint: microsomal CLint at 1 µM (µL/min/mg)
Respond numerically; units are µL/min/mg and should not be typed.

-- ask microsomal CLint at 1 µM lookup needed for CN1Cc2cc(Cl)ccc2-n2c(nnc2[C@H]2CC[C@H](Oc3ccccn3)CC2)C1 [BALOVAPTAN] , thanks.
-- reply 22

* * *

- Tested on: P-glycoprotein
- method_summary: Efflux ratio of Apparent permeability across apical to basolateral side in human Caco-2 cells expressing P-glycoprotein at 10 uM by HPLC-UV analysis
assay_endpoint: efflux ratio at 10 µM
Form rule: numeric answer, no unit written next to it.

-- ask efflux ratio at 10 µM lookup needed for `Brc1ccc2c(c1)CCCc1nnc([C@H]3CC[C@H](Oc4ccccn4)CC3)n1-2` , thanks.
-- reply 0.9

-- ask efflux ratio at 10 µM lookup needed for `Brc1ccc2c(c1)CCCc1nnc(C3CCN(c4ccccn4)CC3)n1-2` , thanks.
-- reply 0.8

-- ask efflux ratio at 10 µM lookup needed for `O=C(C1CCN(c2ccccn2)CC1)N1CCNc2cc(Cl)ccc21` , thanks.
-- reply 0.7

-- ask efflux ratio at 10 µM lookup needed for `Clc1ccc2c(c1)CCc1nnc(C3CCN(c4ccccn4)CC3)n1-2` , thanks.
-- reply 0.8

* * *

- system_tested: UniProt:P37288
- method_summary: Displacement of [3H]AVP from human V1a receptor expressed in […] cells at 10 uM by radioligand binding assay relative to control
- Type: cell-based
- condition_summary: 1321N1
- Sequence (P37288 whole entry, looked up): as the sequence (P37288 whole entry) above
assay_endpoint: inhibition
Returns: string containing the number followed by the unit.

-- ask inhibition lookup needed for CC(C)(C)OC(=O)NC1Cc2cc(Cl)ccc2-n2c(C3CCN(c4ccccn4)CC3)nnc21 (stereo not given) , thanks.
-- reply 25%

-- ask inhibition lookup needed for `Clc1ccc2c(c1)CCc1nnc(C3CCCCC3)n1-2` , thanks.
-- reply 35%

-- ask inhibition lookup needed for `Clc1ccc2nc3[nH]nc(C4CCN(c5ccccn5)CC4)n3c2c1` , thanks.
-- reply 27%

-- ask inhibition lookup needed for `Cc1nnc2n1-c1ccc(Cl)cc1CC2` , thanks.
-- reply 9%

-- ask inhibition lookup needed for `CC(C)(C)OC(=O)N1CCC(c2nnc3n2-c2ccc(Cl)cc2CC3)CC1` , thanks.
-- reply 37%

-- ask inhibition lookup needed for `Clc1ccc2c(c1)CCc1nnc(C3CCNCC3)n1-2` , thanks.
-- reply 14%

-- ask inhibition lookup needed for NC1Cc2cc(Cl)ccc2-n2c1nnc2C1CCN(c2ccccn2)CC1 (stereo not given) , thanks.
-- reply 34%

-- ask inhibition lookup needed for `O=S(=O)(c1ccc(F)cc1)N1CCC(c2nnc3n2-c2ccc(Cl)cc2CC3)CC1` , thanks.
-- reply 36%

-- ask inhibition lookup needed for `O=c1[nH]c2cc(Cl)ccc2n2c(C3CCN(c4ccccn4)CC3)nnc12` , thanks.
-- reply 3%

-- ask inhibition lookup needed for `O=S(=O)(c1ccccn1)N1CCC(c2nnc3n2-c2ccc(Cl)cc2CC3)CC1` , thanks.
-- reply 19%

* * *

Would you kindly list inhibition for each of these compounds?
- system_tested: Vasopressin V1a receptor (Homo sapiens, UniProt P37288)
- method_summary: Inhibition of human V1a receptor expressed in human 1321N1 cells assessed as decrease in Arg8-vasopressin-stimulated calcium flux at 10 uM by fluorometric calcium assay relative to control
- Type: functional, cell-based

-- ask inhibition lookup needed for `Cc1ccc(S(=O)(=O)N2CCC(c3nnc4n3-c3ccc(Cl)cc3CC4)CC2)cc1` , thanks.
-- reply < 50%

-- ask inhibition lookup needed for `COc1nc2cc(Cl)ccc2n2c(C3CCN(c4ccccn4)CC3)nnc12` , thanks.
-- reply 40%

-- ask inhibition lookup needed for `Clc1ccc2c(c1)CCc1nnc(C3CCNCC3)n1-2` , thanks.
-- reply < 50%

-- ask inhibition lookup needed for Clc1ccc2c(c1)C1CC1c1nnc([C@H]3CC[C@@H](Oc4ccccn4)CC3)n1-2 (stereo not given in full) , thanks.
-- reply < 50%

-- ask inhibition lookup needed for `Clc1ccc2c(c1)CCc1nnc(C3CCCCC3)n1-2` , thanks.
-- reply < 50%

-- ask inhibition lookup needed for `Clc1ccc2nc3[nH]nc(C4CCN(c5ccccn5)CC4)n3c2c1` , thanks.
-- reply 8%

-- ask inhibition lookup needed for `O=S(=O)(c1ccccn1)N1CCC(c2nnc3n2-c2ccc(Cl)cc2CC3)CC1` , thanks.
-- reply < 50%

-- ask inhibition lookup needed for NC1Cc2cc(Cl)ccc2-n2c1nnc2C1CCN(c2ccccn2)CC1 (stereo not given) , thanks.
-- reply < 50%

-- ask inhibition lookup needed for CC(C)(C)OC(=O)NC1Cc2cc(Cl)ccc2-n2c(C3CCN(c4ccccn4)CC3)nnc21 (stereo not given) , thanks.
-- reply < 50%

-- ask inhibition lookup needed for `O=c1[nH]c2cc(Cl)ccc2n2c(C3CCN(c4ccccn4)CC3)nnc12` , thanks.
-- reply 0%

-- ask inhibition lookup needed for Clc1ccc2c(c1)C1CC1c1nnc(C3CCN(c4ccccn4)CC3)n1-2 (stereo not given) , thanks.
-- reply < 50%

-- ask inhibition lookup needed for `O=S(=O)(c1ccc2c(c1)CCO2)N1CCC(c2nnc3n2-c2ccc(Cl)cc2CC3)CC1` , thanks.
-- reply < 50%

-- ask inhibition lookup needed for `CC(C)(C)OC(=O)N1CCC(c2nnc3n2-c2ccc(Cl)cc2CC3)CC1` , thanks.
-- reply < 50%

-- ask inhibition lookup needed for `Cc1cc([C@H]2CC[C@H](c3nnc4n3-c3ccc(Cl)cc3[C@@H]3C[C@H]43)CC2)no1` , thanks.
-- reply < 50%

-- ask inhibition lookup needed for `Cc1nnc2n1-c1ccc(Cl)cc1CC2` , thanks.
-- reply < 50%
